meta.source: ChEMBL document CHEMBL1132569

- test_system: Muscarinic acetylcholine receptor M2 (Homo sapiens)
- Sequence (whole entry): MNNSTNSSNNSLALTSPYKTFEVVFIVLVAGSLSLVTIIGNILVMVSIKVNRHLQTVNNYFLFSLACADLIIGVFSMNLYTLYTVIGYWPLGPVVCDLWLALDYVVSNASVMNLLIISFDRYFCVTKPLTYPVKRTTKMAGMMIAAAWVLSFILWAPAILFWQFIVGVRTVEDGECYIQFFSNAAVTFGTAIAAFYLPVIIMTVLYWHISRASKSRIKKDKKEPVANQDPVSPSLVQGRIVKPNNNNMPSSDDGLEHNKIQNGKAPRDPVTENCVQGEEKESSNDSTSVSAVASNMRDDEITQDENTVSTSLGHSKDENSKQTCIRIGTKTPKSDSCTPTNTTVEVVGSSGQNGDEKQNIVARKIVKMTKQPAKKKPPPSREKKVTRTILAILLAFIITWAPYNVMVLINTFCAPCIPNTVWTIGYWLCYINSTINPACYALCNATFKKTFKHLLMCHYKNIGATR
- run_description: Binding affinity at the unliganded human muscarinic acetylcholine receptor M2 was estimated as log affinity (log1/M)
quantity_kind: Affinity
Answer using only a numeral; do not append any unit.

// solved cases for Affinity follow
O=C1C[C@@H]2OCC=C3C[N+]4(Cc5ccccc5)CC[C@]56c7ccccc7N1[C@H]5[C@H]2[C@H]3C[C@@H]64 (some centres not stated) | 5.3
C=CC[N+]12CC[C@@]34c5ccccc5N5/C=C6/[C@H]7C[C@H]8[C@@]9(CC[N@@+]8(CC=C)C/C7=C/CO)c7ccccc7N(/C=C(/[C@@H](C[C@@H]31)/C(=C\CO)C2)[C@H]54)[C@@H]69 (some centres not stated) | 6
COc1cc2c(cc1OC)[C@@]13CCN4CC5=CCO[C@H]6CC(=O)N2[C@H]1[C@H]6[C@H]5C[C@H]43 | 4.5
CC[N+]12CC[C@@]34c5ccccc5N5C(=O)C[C@@H]6OCC=C(C1)[C@H](C[C@@H]32)[C@@H]6[C@H]54 (some centres not stated) | 4.7

**Query** Annotate the molecule COc1cc2c(cc1OC)[C@@]13CC[N+]4(C)CC5=CCO[C@H]6CC(=O)N2[C@H]1[C@H]6[C@H]5C[C@@H]34 (some centres not stated) with its measured Affinity.
**Result** 4
